The values you see were collected from patent US8198273B2.

System: IPC298 melanoma cells (Ras mutation)
Assay: IPC298 cell growth inhibition (ATPlite)
Type: cell-based
Conditions: Homo sapiens, IPC-298, 72 h; IPC298, 3 days incubation
Parameter: IC50. Scope: all listed entries.
outcome measure: IC50

>>> df
                         chemical_structure   result
0  CCCS(=O)(=O)Nc1ccc(F)c(C(=O)c2c[nH]c3ncc(-c4cnc(SC)nc4)cc23)c1F  < 10 µM
1  COc1ncc(-c2cnc3[nH]cc(C(=O)c4c(F)ccc(NS(=O)(=O)c5ccccc5F)c4F)c3c2)cn1   < 1 µM
2  COc1ncc(-c2cnc3[nH]cc(C(=O)c4c(F)ccc(NS(=O)(=O)c5cc(F)ccc5F)c4F)c3c2)cn1   < 1 µM
3  CCCS(=O)(=O)Nc1ccc(F)c(C(=O)c2c[nH]c3ncc(-c4cnc(N(C)C)nc4)cc23)c1F  < 10 µM

---

Data export: IC50 values recorded with UniProt:P15056.
Sequence (P15056 whole entry): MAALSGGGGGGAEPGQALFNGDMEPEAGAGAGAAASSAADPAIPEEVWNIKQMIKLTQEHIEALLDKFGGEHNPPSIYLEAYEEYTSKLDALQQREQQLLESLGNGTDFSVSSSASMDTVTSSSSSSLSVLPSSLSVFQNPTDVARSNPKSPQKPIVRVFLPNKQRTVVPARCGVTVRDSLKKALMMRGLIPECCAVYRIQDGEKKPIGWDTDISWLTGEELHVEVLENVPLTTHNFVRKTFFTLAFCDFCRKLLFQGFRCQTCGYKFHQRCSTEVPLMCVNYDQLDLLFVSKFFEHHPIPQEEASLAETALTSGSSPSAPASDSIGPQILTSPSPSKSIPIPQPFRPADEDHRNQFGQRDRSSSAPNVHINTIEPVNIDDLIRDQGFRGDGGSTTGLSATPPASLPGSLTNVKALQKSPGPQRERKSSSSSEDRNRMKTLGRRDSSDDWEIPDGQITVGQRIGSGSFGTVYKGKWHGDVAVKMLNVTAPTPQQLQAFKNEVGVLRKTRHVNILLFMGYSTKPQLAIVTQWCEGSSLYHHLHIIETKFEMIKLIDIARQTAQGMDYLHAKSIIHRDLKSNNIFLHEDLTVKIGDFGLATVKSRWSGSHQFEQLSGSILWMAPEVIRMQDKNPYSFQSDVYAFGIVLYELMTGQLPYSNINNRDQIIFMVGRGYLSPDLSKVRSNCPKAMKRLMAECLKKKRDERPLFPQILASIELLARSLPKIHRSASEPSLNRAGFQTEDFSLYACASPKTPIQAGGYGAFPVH
outcome measure: IC50

                         chemical_structure   system_tested  outcome_measure    result
0  O=C(c1c(F)ccc(NS(=O)(=O)c2c(F)cccc2F)c1F)c1c[nH]c2ncc(Cl)cc12  UniProt:P15056             IC50  < 100 nM
1  N#Cc1cnc2[nH]cc(C(=O)c3cccc(NS(=O)(=O)c4ccccc4)c3F)c2c1  UniProt:P15056             IC50  < 100 nM
2  CCCS(=O)(=O)Nc1ccc(F)c(C(=O)c2c[nH]c3ncc(-c4ccc(OCCN5CCOCC5)nc4)cc23)c1F  UniProt:P15056             IC50   < 10 nM
3  CCCS(=O)(=O)Nc1cccc(C(=O)c2c[nH]c3ncc(-c4cnc(OC)nc4)cc23)c1F  UniProt:P15056             IC50  < 100 nM
4  Cc1cnc2[nH]cc(C(=O)c3c(F)ccc(NS(=O)(=O)c4cc(F)ccc4F)c3F)c2c1  UniProt:P15056             IC50  < 100 nM
5  CC(C)CS(=O)(=O)Nc1ccc(F)c(C(=O)c2c[nH]c3ncc(-c4cnn(C)c4)cc23)c1F  UniProt:P15056             IC50   < 10 nM

---

Target: CYP3A4(BQ) (Homo sapiens, UniProt P08684)
Sequence (P08684 whole entry): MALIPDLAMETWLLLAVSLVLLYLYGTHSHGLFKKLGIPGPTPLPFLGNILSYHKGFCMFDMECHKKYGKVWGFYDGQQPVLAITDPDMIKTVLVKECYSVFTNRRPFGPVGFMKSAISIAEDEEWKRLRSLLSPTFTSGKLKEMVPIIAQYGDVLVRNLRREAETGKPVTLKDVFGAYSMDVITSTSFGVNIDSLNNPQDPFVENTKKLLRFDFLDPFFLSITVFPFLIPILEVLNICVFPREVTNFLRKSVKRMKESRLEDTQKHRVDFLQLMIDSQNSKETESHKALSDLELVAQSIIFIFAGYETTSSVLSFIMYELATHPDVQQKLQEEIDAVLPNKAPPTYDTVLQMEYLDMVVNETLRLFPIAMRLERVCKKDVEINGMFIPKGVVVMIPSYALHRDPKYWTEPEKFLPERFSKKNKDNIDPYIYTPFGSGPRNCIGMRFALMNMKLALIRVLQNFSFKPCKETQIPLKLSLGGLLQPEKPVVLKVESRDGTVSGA
Test: CYP3A4(BQ) inhibition (fluorescent substrate)
Type: in vitro ADME
Settings: read-out: Cyp IC50 3A4(BQ)
pIC50: −log10 of the molar value.
outcome measure: pIC50

                          chemical_structure        result
 0  CCCS(=O)(=O)Nc1ccc(F)c(C(=O)c2c[nH]c3ncc(-c4ccc(NC(C)=O)nc4)cc23)c1F        < 5.00
 1  C#Cc1cnc2[nH]cc(C(=O)c3c(F)ccc(NS(=O)(=O)CCC)c3F)c2c1  5.00 to 5.30
 2  N#Cc1ccnc2[nH]cc(C(=O)c3c(F)ccc(NS(=O)(=O)c4cccc(F)c4)c3F)c12        < 5.00
 3  CCCS(=O)(=O)Nc1ccc(F)c(C(=O)c2c[nH]c3ncc(-c4ccc(C)nc4)cc23)c1F        < 5.00
 4  CCCS(=O)(=O)Nc1ccc(F)c(C(=O)c2c[nH]c3ncc(-c4ccc(S(=O)(=O)CC)cc4)cc23)c1F        < 5.00
 5  CCCS(=O)(=O)Nc1ccc(F)c(C(=O)c2c[nH]c3ncc(-c4cncnc4)cc23)c1F        > 5.30
 6  CCCS(=O)(=O)Nc1ccc(F)c(C(=O)c2c[nH]c3ncc(-c4cnc(OC)nc4OC)cc23)c1F        < 5.00
 7  COc1cnc2[nH]cc(C(=O)c3c(F)ccc(NS(=O)(=O)c4cc(F)ccc4F)c3F)c2c1        < 5.00
 8  CCCS(=O)(=O)Nc1ccc(F)c(C(=O)c2c[nH]c3ncc(-c4ccc(C(=O)NC)nc4)cc23)c1F        < 5.00
 9  Cc1cnc2[nH]cc(C(=O)c3c(F)ccc(NS(=O)(=O)c4cccc(F)c4)c3F)c2c1  5.00 to 5.30
10  COc1ccnc2[nH]cc(C(=O)c3c(F)ccc(NS(=O)(=O)c4cccnc4)c3F)c12        > 5.30
11  O=C(c1c(F)ccc(NS(=O)(=O)c2c(F)cccc2F)c1F)c1c[nH]c2ncc(Cl)cc12        < 5.00
12  CCCS(=O)(=O)Nc1ccc(F)c(C(=O)c2c[nH]c3ncc(-c4ccc(CCCOC)nc4)cc23)c1F        < 5.00
13  CCCS(=O)(=O)Nc1ccc(F)c(C(=O)c2c[nH]c3ncc(-c4ccc(N(C)C)nc4)cc23)c1F        < 5.00
14  Cc1cnc2[nH]cc(C(=O)c3c(F)ccc(NS(=O)(=O)c4c(F)cccc4F)c3F)c2c1        < 5.00
15  CCCS(=O)(=O)Nc1ccc(F)c(C(=O)c2c[nH]c3ncc(-c4ccc(C(=O)NCC)nc4)cc23)c1F        < 5.00

---

Parameter: pIC50. Scope: all listed entries.
Target: CYP2C9 (Homo sapiens)
Sequence (P11712 whole entry): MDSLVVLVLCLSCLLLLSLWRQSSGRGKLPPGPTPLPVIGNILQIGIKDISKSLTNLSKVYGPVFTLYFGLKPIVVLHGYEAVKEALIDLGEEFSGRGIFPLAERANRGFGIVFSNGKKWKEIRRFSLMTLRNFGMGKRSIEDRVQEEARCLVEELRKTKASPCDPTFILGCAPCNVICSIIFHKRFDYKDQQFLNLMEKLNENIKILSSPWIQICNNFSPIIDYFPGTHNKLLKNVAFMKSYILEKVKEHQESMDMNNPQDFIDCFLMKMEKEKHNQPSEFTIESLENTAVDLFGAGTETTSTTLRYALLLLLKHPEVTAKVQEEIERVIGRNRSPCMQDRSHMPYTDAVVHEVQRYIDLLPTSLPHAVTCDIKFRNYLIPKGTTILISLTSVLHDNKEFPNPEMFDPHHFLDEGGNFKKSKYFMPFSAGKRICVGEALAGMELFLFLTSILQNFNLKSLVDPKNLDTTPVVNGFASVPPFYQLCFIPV
Test: CYP2C9 inhibition (fluorescent substrate)
Format: in vitro ADME
Settings: CYP2C9, MFC substrate; read-out: Cyp IC50 2C9
pIC50: −log10 of the molar value.
outcome measure: pIC50

In [3]: df
Out[3]:
                                    compound          system_tested  outcome_measure        result
 0  CCCS(=O)(=O)Nc1ccc(F)c(C(=O)c2c[nH]c3ncc(-c4ccc(N(C)C)nc4)cc23)c1F [P-2229]  CYP2C9 (Homo sapiens)            pIC50  5.00 to 5.30
 1  COc1ncc(-c2cnc3[nH]cc(C(=O)c4c(F)ccc(NS(=O)(=O)c5cc(F)ccc5F)c4F)c3c2)cn1 [P-2042]  CYP2C9 (Homo sapiens)            pIC50  5.00 to 5.30
 2  N#Cc1ccnc2[nH]cc(C(=O)c3c(F)ccc(NS(=O)(=O)c4c(F)cccc4F)c3F)c12 [P-2037]  CYP2C9 (Homo sapiens)            pIC50        < 5.00
 3  COc1ccnc2[nH]cc(C(=O)c3c(F)ccc(NS(=O)(=O)c4cccnc4)c3F)c12 [P-2073]  CYP2C9 (Homo sapiens)            pIC50        < 5.00
 4  CCCS(=O)(=O)Nc1ccc(F)c(C(=O)c2c[nH]c3ncc(-c4cnc(N5CCCC5)nc4)cc23)c1F [P-2219]  CYP2C9 (Homo sapiens)            pIC50        < 5.00
 5  N#Cc1cnc2[nH]cc(C(=O)c3cccc(NS(=O)(=O)c4cc(F)ccc4F)c3F)c2c1 [P-2052]  CYP2C9 (Homo sapiens)            pIC50        > 5.30
 6  Cc1cnc2[nH]cc(C(=O)c3c(F)ccc(NS(=O)(=O)c4c(F)cccc4F)c3F)c2c1 [P-2024]  CYP2C9 (Homo sapiens)            pIC50        < 5.00
 7  CCCS(=O)(=O)Nc1cccc(C(=O)c2c[nH]c3ncc(-c4cnc(OC)nc4)cc23)c1F [P-2407]  CYP2C9 (Homo sapiens)            pIC50        < 5.00
 8  CCCS(=O)(=O)Nc1ccc(F)c(C(=O)c2c[nH]c3ncc(-c4ccc(C(=O)NC)nc4)cc23)c1F [P-2180]  CYP2C9 (Homo sapiens)            pIC50        > 5.30
 9  CCCS(=O)(=O)Nc1ccc(F)c(C(=O)c2c[nH]c3ncc(-c4ccc(S(N)(=O)=O)cc4)cc23)c1F [P-2194]  CYP2C9 (Homo sapiens)            pIC50        < 5.00
10  CCCS(=O)(=O)Nc1ccc(F)c(C(=O)c2c[nH]c3ncc(-c4ccc(S(=O)(=O)N5CCOCC5)cc4)cc23)c1F [P-2166]  CYP2C9 (Homo sapiens)            pIC50        < 5.00
11  Cc1cnc2[nH]cc(C(=O)c3c(F)ccc(NS(=O)(=O)c4ccccc4F)c3F)c2c1 [P-2014]  CYP2C9 (Homo sapiens)            pIC50        < 5.00
12  CCCS(=O)(=O)Nc1ccc(F)c(C(=O)c2c[nH]c3ncc(-c4cnc(C)nc4)cc23)c1F [P-2211]  CYP2C9 (Homo sapiens)            pIC50        < 5.00
13  CCCS(=O)(=O)Nc1ccc(F)c(C(=O)c2c[nH]c3ncc(-c4ccc(NC(C)=O)nc4)cc23)c1F [P-2193]  CYP2C9 (Homo sapiens)            pIC50        < 5.00
14  N#Cc1ccnc2[nH]cc(C(=O)c3c(F)ccc(NS(=O)(=O)c4cc(F)ccc4F)c3F)c12 [P-2036]  CYP2C9 (Homo sapiens)            pIC50        < 5.00
15  N#Cc1cnc2[nH]cc(C(=O)c3c(F)ccc(NS(=O)(=O)c4ccccc4)c3F)c2c1 [P-2046]  CYP2C9 (Homo sapiens)            pIC50        > 5.30
16  COc1ncc(-c2cnc3[nH]cc(C(=O)c4c(F)ccc(NS(=O)(=O)c5c(F)cccc5F)c4F)c3c2)cn1 [P-2043]  CYP2C9 (Homo sapiens)            pIC50        < 5.00
17  O=C(c1c(F)ccc(NS(=O)(=O)c2cc(F)ccc2F)c1F)c1c[nH]c2nccc(Cl)c12 [P-2018]  CYP2C9 (Homo sapiens)            pIC50        < 5.00
18  CCCS(=O)(=O)Nc1ccc(F)c(C(=O)c2c[nH]c3ncc(-c4ccc(C(=O)NC5CC5)nc4)cc23)c1F [P-2181]  CYP2C9 (Homo sapiens)            pIC50        > 5.30
19  CCCS(=O)(=O)Nc1ccc(F)c(C(=O)c2c[nH]c3ncc(-c4ccc(S(=O)(=O)N(C)C)cc4)cc23)c1F [P-2185]  CYP2C9 (Homo sapiens)            pIC50        > 5.30
20  COc1ccnc2[nH]cc(C(=O)c3c(F)ccc(NS(=O)(=O)c4c(F)cccc4F)c3F)c12 [P-2031]  CYP2C9 (Homo sapiens)            pIC50        < 5.00
21  CCCS(=O)(=O)Nc1ccc(F)c(C(=O)c2c[nH]c3ncc(-c4ccc(S(=O)(=O)C(C)C)cc4)cc23)c1F [P-2223]  CYP2C9 (Homo sapiens)            pIC50        < 5.00
22  CCCS(=O)(=O)Nc1ccc(F)c(C(=O)c2c[nH]c3ncc(-c4cnn(Cc5ccccc5)c4)cc23)c1F [P-2190]  CYP2C9 (Homo sapiens)            pIC50        > 5.30
23  CCCS(=O)(=O)Nc1ccc(F)c(C(=O)c2c[nH]c3ncc(-c4ccc(S(C)(=O)=O)cc4)cc23)c1F [P-2183]  CYP2C9 (Homo sapiens)            pIC50  5.00 to 5.30
24  CCCS(=O)(=O)Nc1ccc(F)c(C(=O)c2c[nH]c3ncc(-c4cccc(S(C)(=O)=O)c4)cc23)c1F [P-2228]  CYP2C9 (Homo sapiens)            pIC50        < 5.00
25  N#Cc1cnc2[nH]cc(C(=O)c3cccc(NS(=O)(=O)c4cccc(F)c4)c3F)c2c1 [P-2053]  CYP2C9 (Homo sapiens)            pIC50  5.00 to 5.30
26  N#Cc1cnc2[nH]cc(C(=O)c3c(F)ccc(NS(=O)(=O)c4ccccc4F)c3F)c2c1 [P-2011]  CYP2C9 (Homo sapiens)            pIC50        < 5.00
27  CCCS(=O)(=O)Nc1ccc(F)c(C(=O)c2c[nH]c3ncc(-c4ccc(N5CCCC5)nc4)cc23)c1F [P-2231]  CYP2C9 (Homo sapiens)            pIC50  5.00 to 5.30
28  CCCc1ccc(-c2cnc3[nH]cc(C(=O)c4c(F)ccc(NS(=O)(=O)CCC)c4F)c3c2)cn1 [P-2224]  CYP2C9 (Homo sapiens)            pIC50  5.00 to 5.30
29  CCCS(=O)(=O)Nc1ccc(F)c(C(=O)c2c[nH]c3ncc(-c4cnc(OC)nc4OC)cc23)c1F [P-2199]  CYP2C9 (Homo sapiens)            pIC50        < 5.00
30  CCCS(=O)(=O)Nc1ccc(F)c(C(=O)c2c[nH]c3ncc(-c4ccc(OC)nc4OC)cc23)c1F [P-2184]  CYP2C9 (Homo sapiens)            pIC50  5.00 to 5.30
